Biological target: His-EBNA1 (DNA binding domain of EBNA1, amino acids 459-607) (Epstein-Barr virus, UniProt P03211)
Sequence (P03211 459-607): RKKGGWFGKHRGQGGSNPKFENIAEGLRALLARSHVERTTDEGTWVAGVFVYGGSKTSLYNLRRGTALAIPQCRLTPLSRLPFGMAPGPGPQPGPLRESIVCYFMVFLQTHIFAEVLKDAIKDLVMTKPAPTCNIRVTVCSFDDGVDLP
READOUT: IC50

| GIVEN SMILES | TEST RESULT |
| --- | --- |
| O=C(O)c1cccc(C#Cc2ccccc2)c1-n1cncn1 | 10 to 100 µM |
| COC/C=C/c1cccc(C(=O)O)c1-n1cccc1 | 1 to 10 µM |
| O=C(O)c1cccc(C#Cc2cccc(CNS(=O)(=O)C3CC3)c2)c1-n1cccc1 | < 1 µM |
| Cn1cc(-c2c(C#Cc3cccc(O)c3)cccc2C(=O)O)cn1 | 1 to 10 µM |
| O=C(O)c1cccc(C#Cc2ccccc2)c1-n1cccn1 | 100 to 1000 µM |
| O=C(O)c1cccc(C#Cc2ccccc2)c1-c1ccc2ccccc2c1 | 1 to 10 µM |
| O=C(O)c1cccc(C#Cc2ccccc2)c1-n1ncc2ccccc21 | 10 to 100 µM |
| O=C(O)c1cccc(C#Cc2cc(C(=O)O)c3cc[nH]c3c2)c1 | 1 to 10 µM |
| CS(=O)(=O)NC(=O)c1cccc(C#Cc2ccc(F)cc2)c1-n1cccc1 | 10 to 100 µM |
